# tested system: human His-PIM1 [2-313] (Homo sapiens, UniProt P11309)
# Construct: purified human His-PIM1 [2-313] enzyme; His (N); purchased University of Dundee, Scotland; host or cells: baculovirus system
# Sequence (P11309 2-313): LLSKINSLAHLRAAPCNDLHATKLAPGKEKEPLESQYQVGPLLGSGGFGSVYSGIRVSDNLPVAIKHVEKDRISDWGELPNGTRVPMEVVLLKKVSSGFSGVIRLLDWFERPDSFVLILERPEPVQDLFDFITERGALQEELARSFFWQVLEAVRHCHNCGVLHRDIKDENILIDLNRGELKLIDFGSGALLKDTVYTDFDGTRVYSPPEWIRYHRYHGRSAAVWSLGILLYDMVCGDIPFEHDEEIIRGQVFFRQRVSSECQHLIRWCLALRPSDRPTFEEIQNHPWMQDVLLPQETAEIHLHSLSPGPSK
# measurement protocol: PIM1 in-vitro mobility shift assay (Caliper LC3000, FL-Ahx-Bad phosphorylation)
# Type: biochemical
# condition details: 1.5 h; percent inhibition at 0.3 uM compound; read-out: PIM1 % I at 0.3 uM
Listed next: entries and their corresponding inhibition at 0.3 µM.
Form entry: value (%) — number only.

Example compounds with recorded inhibition at 0.3 µM:
{"columns": ["compound", "tested system", "inhibition at 0.3 µM (%)"],
 "data": [
  ["CN(C)C(=O)CCC(=O)N[C@H]1CCN(c2c(Cl)cccc2/C=C2\\SC(=O)NC2=O)C1", "human His-PIM1 [2-313] (Homo sapiens, UniProt P11309)", 63.2],
  ["CC(C)(C)N1CCN(c2c(Cl)cc(C(F)(F)F)cc2/C=C2\\SC(=O)NC2=O)CC1", "human His-PIM1 [2-313] (Homo sapiens, UniProt P11309)", 90.8],
  ["Cc1ccc(C=C2SC(=O)NC2=O)c(N2CC[C@H](N(C)C)C2)c1 [Example 84J]", "human His-PIM1 [2-313] (Homo sapiens, UniProt P11309)", 93.3]
]}

Input CC(C)CN1CCN(c2c(Cl)cc(C(F)(F)F)cc2/C=C2\SC(=O)NC2=O)CC1 . Output inhibition at 0.3 µM: 80.2

----------
# tested system: human His-PIM1 [2-313] (Homo sapiens, UniProt P11309)
# Construct: purified human His-PIM1 [2-313] enzyme; His (N); purchased University of Dundee, Scotland; host or cells: baculovirus system
# measurement protocol: PIM1 in-vitro mobility shift assay (Caliper LC3000, FL-Ahx-Bad phosphorylation)
# Format: biochemical
# condition details: 1.5 h; percent inhibition at 0.3 uM compound; read-out: PIM1 % I at 0.3 uM
Structures can show the parent of a compound that is named as a salt.
Listed next: entries and their corresponding inhibition at 0.3 µM.

Example molecules with recorded inhibition at 0.3 µM:
{"columns": ["molecule", "inhibition at 0.3 µM"],
 "data": [
  ["COCC(=O)N[C@H]1CCN(c2c(Cl)cccc2/C=C2\\SC(=O)NC2=O)C1 [Example 136]", "82.8%"],
  ["N[C@H]1CCN(c2c(Br)cccc2/C=C2\\SC(=O)NC2=O)C1 [Example 122H, hydrochloride]", "> 95%"],
  ["NC(=O)COc1cccc(/C=C2\\SC(=O)NC2=O)c1 [Example 84C]", "47.8%"],
  ["N[C@H]1CCN(c2c(/C=C3\\SC(=O)NC3=O)cccc2OCC(F)(F)F)C1 [Example 122Z, hydrochloride]", "> 95%"],
  ["CN(C)[C@H]1CCN(c2c(Cl)cccc2/C=C2\\SC(=O)NC2=O)C1 [Example 38]", "> 95%"],
  ["N[C@H]1CCN(c2ccccc2/C=C2\\SC(=O)NC2=O)C1 [Example 122X, hydrochloride]", "> 95%"],
  ["COc1cc(/C=C2\\SC(=O)NC2=O)c(N2CCC(N)C2)cc1OC (centres unmarked) [Example 118, hydrochloride]", "> 95%"],
  ["CN(C)[C@H]1CCN(c2ccc(C(F)(F)F)cc2C=C2SC(=O)NC2=O)C1 [Example 84H]", "> 95%"],
  ["NCc1cccc(C(=O)N2CCN(c3ccccc3/C=C3\\SC(=O)NC3=O)CC2)c1 [Example 110, hydrochloride]", "90.9%"],
  ["COc1cc(/C=C2\\SC(=O)NC2=O)c(N(C)CCN(C)C)cc1OC [Example 51]", "85.5%"]
]}

Observed inhibition at 0.3 µM on human His-PIM1 [2-313] (Homo sapiens, UniProt P11309), entry NCCCC(=O)N1CCN(c2ccccc2/C=C2\SC(=O)NC2=O)CC1 [Example 107, hydrochloride] , equals > 95%

Observed inhibition at 0.3 µM on human His-PIM1 [2-313] (Homo sapiens, UniProt P11309), entry O=C1NC(=O)/C(=C/c2cc(C(F)(F)F)cc(Cl)c2N2CCN(CCCO)CC2)S1 [Example 23] , equals 87.6%

Observed inhibition at 0.3 µM on human His-PIM1 [2-313] (Homo sapiens, UniProt P11309), entry NCCCN[C@H]1CCN(c2c(Cl)cccc2/C=C2\SC(=O)NC2=O)C1 [Example 125] , equals > 95%

Observed inhibition at 0.3 µM on human His-PIM1 [2-313] (Homo sapiens, UniProt P11309), entry O=C(Cc1ccncc1)N[C@H]1CCN(c2c(Cl)cccc2/C=C2\SC(=O)NC2=O)C1 [Example 140] , equals 73.3%

Observed inhibition at 0.3 µM on human His-PIM1 [2-313] (Homo sapiens, UniProt P11309), entry Cn1cc(C(=O)N[C@H]2CCN(c3c(Cl)cccc3/C=C3\SC(=O)NC3=O)C2)cn1 [Example 141] , equals 34.9%

Observed inhibition at 0.3 µM on human His-PIM1 [2-313] (Homo sapiens, UniProt P11309), entry CN(C)[C@H]1CCN(c2cccc(Cl)c2C=C2SC(=O)NC2=O)C1 [Example 84O] , equals < 5%

Observed inhibition at 0.3 µM on human His-PIM1 [2-313] (Homo sapiens, UniProt P11309), entry COc1cc(/C=C2\SC(=O)NC2=O)c(N2CCC(NC(C)=O)C2)cc1OC (centres unmarked) [Example 131A] , equals 27.1%

----------
# tested system: human His-PIM1 [2-313] (Homo sapiens)
# Construct: purified human His-PIM1 [2-313] enzyme; His (N); purchased University of Dundee, Scotland; host or cells: baculovirus system
# measurement protocol: PIM1 in-vitro mobility shift assay (Caliper LC3000, FL-Ahx-Bad phosphorylation)
# Assay type: biochemical
# condition details: 1.5 h; percent inhibition at 0.3 uM compound; read-out: PIM1 % I at 0.3 uM
Structures can show the parent of a compound that is named as a salt.
observable: inhibition at 0.3 µM (%)
Form entry: value (%) — number only.

{"columns": ["molecule", "inhibition at 0.3 µM, %"],
 "data": [
  ["NC(=O)NCC(=O)N[C@H]1CCN(c2c(Cl)cccc2/C=C2\\SC(=O)NC2=O)C1 [Example 138]", 87.9]
]}

Observed inhibition at 0.3 µM on human His-PIM1 [2-313] (Homo sapiens), entry COc1ccc(OCCCNC(C)C)c(C=C2SC(=O)NC2=O)c1 [Example 150] , equals 79.8

Observed inhibition at 0.3 µM on human His-PIM1 [2-313] (Homo sapiens), entry CC(C)N1CCN(c2c(Cl)cc(C(F)(F)F)cc2/C=C2\SC(=O)NC2=O)CC1 [Example 11] , equals 89.4

Observed inhibition at 0.3 µM on human His-PIM1 [2-313] (Homo sapiens), entry CN(C)C1CCN(c2ccc(C(N)=O)cc2/C=C2\SC(=O)NC2=O)C1 (centres unmarked) [Example 57, hydrochloride] , equals 53.3

Observed inhibition at 0.3 µM on human His-PIM1 [2-313] (Homo sapiens), entry Cn1ccnc1C(=O)N[C@H]1CCN(c2c(Cl)cccc2/C=C2\SC(=O)NC2=O)C1 [Example 135] , equals 42.5

----------
# tested system: human His-PIM2 [23-299] (Homo sapiens, UniProt Q9P1W9)
# Construct: purified human His-PIM2 [23-299] enzyme; His (N); host or cells: E. coli
# Sequence (Q9P1W9 23-299): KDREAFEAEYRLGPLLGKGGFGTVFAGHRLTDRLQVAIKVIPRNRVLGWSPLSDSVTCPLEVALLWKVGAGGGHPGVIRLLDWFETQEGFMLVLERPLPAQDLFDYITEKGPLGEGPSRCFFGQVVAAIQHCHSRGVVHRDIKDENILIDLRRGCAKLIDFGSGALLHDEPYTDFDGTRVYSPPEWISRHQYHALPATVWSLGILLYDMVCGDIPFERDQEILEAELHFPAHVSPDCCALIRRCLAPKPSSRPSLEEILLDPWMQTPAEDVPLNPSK
# measurement protocol: PIM2 in-vitro mobility shift assay (Caliper LC3000, FL-Ahx-Bad phosphorylation)
# Type: biochemical
# condition details: 1.5 h; percent inhibition at 0.3 uM compound; read-out: PIM2 % I at 0.3 uM
Where a name gives a salt, the structure may show the parent alone.
Listed next: entries and their corresponding inhibition at 0.3 µM.
Form entry: value (%) — number only.

Example compounds with recorded inhibition at 0.3 µM:
{"columns": ["compound", "uom", "inhibition at 0.3 µM"],
 "data": [
  ["O=C1NC(=O)/C(=C/c2cc(C(F)(F)F)ccc2N2CCN(C(=O)C3CCCNC3)CC2)S1 (centres unmarked) [Example 92, hydrochloride]", "%", 81.5],
  ["COc1cc(/C=C2\\SC(=O)NC2=O)c(N2CC[C@@H](N(C)C)C2)cc1OC [Example 39]", "%", 57.3],
  ["CN(C)CCN(C)S(=O)(=O)c1ccc(-c2ccccc2/C=C2\\SC(=O)NC2=O)cc1 [Example 84F]", "%", 52.4],
  ["NC[C@H]1CCN(c2c(Cl)cccc2/C=C2\\SC(=O)NC2=O)C1 [Example 122B]", "%", 92.3],
  ["O=C1NC(=O)/C(=C/c2ccccc2N2CCOCC2)S1 [Example 82]", "%", 58.2]
]}

Observed inhibition at 0.3 µM on human His-PIM2 [23-299] (Homo sapiens, UniProt Q9P1W9), entry CC(C)(C)N1CCN(c2c(Cl)cc(C(F)(F)F)cc2/C=C2\SC(=O)NC2=O)CC1 [Example 30] , equals 15.6

Observed inhibition at 0.3 µM on human His-PIM2 [23-299] (Homo sapiens, UniProt Q9P1W9), entry CN(C)C1CCN(c2c(Cl)cc(C(F)(F)F)cc2/C=C2\SC(=O)NC2=O)CC1 [Example 24] , equals 44.3

Observed inhibition at 0.3 µM on human His-PIM2 [23-299] (Homo sapiens, UniProt Q9P1W9), entry COc1ccc(OCCCN)c(C=C2SC(=O)NC2=O)c1 [Example 129C] , equals 52.1

Observed inhibition at 0.3 µM on human His-PIM2 [23-299] (Homo sapiens, UniProt Q9P1W9), entry NCCC(=O)N1CCN(c2ccc(C(F)(F)F)cc2/C=C2\SC(=O)NC2=O)CC1 [Example 93, hydrochloride] , equals 66.3
